Please go through the items and note down their pEC50.
# System: Human immunodeficiency virus 1
# Assay Comment: Antiviral activity against HIV1 subtype C isolate Indie
# Assay type: functional, organism-based
# Measurement Conditions: Human immunodeficiency virus 1, subtype C isolate Indie
# reply with the number alone; pEC50 is -log10 of concentration in mol/L

Endpoint output: pEC50 of CC(C)CN(C[C@@H](O)[C@H](Cc1ccccc1)NC(=O)O[C@H]1CO[C@H]2OCC[C@H]21)S(=O)(=O)c1ccc(N)cc1 . Value? 8.90

Give the measured pEC50 of CC(C)CN(C[C@@H](O)[C@H](Cc1ccccc1)NC(=O)[C@@H]1COCCN1)S(=O)(=O)c1ccc(O)cc1 . 8.08

====

# Study System: Human immunodeficiency virus type 1 protease (Human immunodeficiency virus 1, UniProt Q72874)
Answer each item with its documented log10(IC50).
Please interpret these as log10 of IC50 where IC50 is in nM.

Could you tell me which log10(IC50) is on file for CNc1ccc(S(=O)(=O)N(CC(C)C)C[C@@H](O)[C@H](Cc2ccccc2)NC(=O)[C@@H]2COCCN2)cc1 ? 1.98

Which log10(IC50) value is on record for COc1ccc(S(=O)(=O)N(CC(C)C)C[C@@H](O)[C@H](Cc2ccccc2)NC(=O)[C@@H]2COCCN2)cc1 ? -0.41

Param item = CC(C)CN(C[C@@H](O)[C@H](Cc1ccccc1)NC(=O)CN1CCS(=O)(=O)CC1)S(=O)(=O)c1ccc(NO)cc1 ; retrieve measured log10(IC50). 1.68

For the compound shown here, CC(C)CN(C[C@@H](O)[C@H](Cc1ccccc1)NC(=O)OC[C@H]1CNCCO1)S(=O)(=O)c1ccc(N)cc1 , give the reported log10(IC50). 1.29

Report log10(IC50) for CC(C)CN(C[C@@H](O)[C@H](Cc1ccccc1)NC(=O)[C@@H]1COCCN1C)S(=O)(=O)c1ccc(O)cc1 please. 0.08

Which log10(IC50) reading was recorded for the compound CC(C)CN(C[C@@H](O)[C@H](Cc1ccccc1)NC(=O)[C@H]1CNCCO1)S(=O)(=O)c1ccc(N)cc1 ? 1.73

Fill blank: measured log10(IC50) of the compound COc1ccc(S(=O)(=O)N(CC(C)C)C[C@@H](O)[C@H](Cc2ccccc2)NC(=O)[C@@H]2COCCN2C)cc1 is ____. 0.68

====

# Study System: Human immunodeficiency virus type 1 protease (Human immunodeficiency virus 1, UniProt Q72874)
Endpoint Name: log10(IC50) (log10 of the value in nM)
Note: values are log10 of IC50 expressed in nM.

May I ask what log10(IC50) has been recorded for CC(C)CN(C[C@@H](O)[C@H](Cc1ccccc1)NC(=O)[C@H]1CNCCO1)S(=O)(=O)c1ccc(O)cc1 ? 0.75

Fill blank: measured log10(IC50) of the compound CC(C)CN(C[C@@H](O)[C@H](Cc1ccccc1)NC(=O)OC[C@H]1CNCCO1)S(=O)(=O)c1ccc(O)cc1 is ____. 0.28

Consider the compound shown here: CC(C)CN(C[C@@H](O)[C@H](Cc1ccccc1)NC(=O)[C@@H]1COCCN1)S(=O)(=O)c1ccc(NO)cc1 What is its recorded log10(IC50)? 0.48

Need log10(IC50), item CC(C)CN(C[C@@H](O)[C@H](Cc1ccccc1)NC(=O)OC[C@H]1CN(C)CCO1)S(=O)(=O)c1ccc(O)cc1 0.19

Tell me the measured log10(IC50) of CC(C)CN(C[C@@H](O)[C@H](Cc1ccccc1)NC(=O)OC[C@H]1CNCCO1)S(=O)(=O)c1ccc(NO)cc1 , please. 0.39

I am curious: what log10(IC50) value has been reported for CC(C)CN(C[C@@H](O)[C@H](Cc1ccccc1)NC(=O)[C@@H]1COCCN1C)S(=O)(=O)c1ccc(NO)cc1 ? 1.43

Which log10(IC50) reading was recorded for the compound CNc1ccc(S(=O)(=O)N(CC(C)C)C[C@@H](O)[C@H](Cc2ccccc2)NC(=O)[C@H]2CNCCO2)cc1 ? 1.96

Give the measured log10(IC50) of CC(C)CN(C[C@@H](O)[C@H](Cc1ccccc1)NC(=O)[C@H]1CNCCO1)S(=O)(=O)c1ccc(NO)cc1 . 1.53

Query: log10(IC50); subject: CC(C)CN(C[C@@H](O)[C@H](Cc1ccccc1)NS(=O)(=O)N1CCOCC1)S(=O)(=O)c1ccc(N)cc1 1.55

Which log10(IC50) is listed for COc1ccc(S(=O)(=O)N(CC(C)C)C[C@@H](O)[C@H](Cc2ccccc2)NC(=O)[C@H]2CNCCO2)cc1 ? 1.07

Which log10(IC50) value is on record for COc1ccc(S(=O)(=O)N(CC(C)C)C[C@@H](O)[C@H](Cc2ccccc2)NS(=O)(=O)N2CCOCC2)cc1 ? 1.28

I have this compound here, CC(C)CN(C[C@@H](O)[C@H](Cc1ccccc1)NC(=O)[C@@H]1COCCN1)S(=O)(=O)c1ccc(N)cc1 , and I need its recorded log10(IC50). 1.50

Name the reported log10(IC50) value associated with the compound COc1ccc(S(=O)(=O)N(CC(C)C)C[C@@H](O)[C@H](Cc2ccccc2)NC(=O)CN2CCS(=O)(=O)CC2)cc1 1.39

Request the reported log10(IC50) associated with CC(C)CN(C[C@@H](O)[C@H](Cc1ccccc1)NC(=O)[C@@H]1COCCN1)S(=O)(=O)c1ccc(S(C)(=O)=O)cc1 2.66

I would be grateful if you could share the reported log10(IC50) for COc1ccc(S(=O)(=O)N(CC(C)C)C[C@@H](O)[C@H](Cc2ccccc2)NC(=O)OC[C@H]2CN(C)CCO2)cc1 . 0.35

Suppose we examine the compound CC(C)CN(C[C@@H](O)[C@H](Cc1ccccc1)NC(=O)[C@@H]1COCCN1)S(=O)(=O)c1ccc(O)cc1 ; what log10(IC50) value has been reported? -1.05

Give the measured log10(IC50) of COc1ccc(S(=O)(=O)N(CC(C)C)C[C@@H](O)[C@H](Cc2ccccc2)NC(=O)OC[C@H]2CNCCO2)cc1 . -0.17

Look up log10(IC50): CC(C)CN(C[C@@H](O)[C@H](Cc1ccccc1)NC(=O)CN1CCS(=O)(=O)CC1)S(=O)(=O)c1ccc(O)cc1 1.03

Look up log10(IC50): CC(C)CN(C[C@@H](O)[C@H](Cc1ccccc1)NC(=O)OC[C@H]1CN(C)CCO1)S(=O)(=O)c1ccc(NO)cc1 1.14

====

# Assay Comment: Cytotoxicity against human HEK-293T cells after 24 hrs by CCK-8 assay
# Type: toxicity, cell-based
Endpoint Name: log10(CC50 at 24 h) (log10 of the value in µM)
Annotation: log10 of CC50 at 24 h, µM basis.

Given CC(C)CN(C[C@@H](O)[C@H](Cc1ccccc1)NC(=O)[C@H]1CNCCO1)S(=O)(=O)c1ccc(NO)cc1 , state its recorded log10(CC50 at 24 h). 1.05

Form field: reported log10(CC50 at 24 h) of CC(C)CN(C[C@@H](O)[C@H](Cc1ccccc1)NC(=O)OC[C@H]1CNCCO1)S(=O)(=O)c1ccc(N)cc1 2.30

I would be grateful if you could share the reported log10(CC50 at 24 h) for CC(C)CN(C[C@@H](O)[C@H](Cc1ccccc1)NS(=O)(=O)N1CCOCC1)S(=O)(=O)c1ccc(N)cc1 . 2.00

Dear colleague, I am looking for the recorded log10(CC50 at 24 h) of the following compound: COc1ccc(S(=O)(=O)N(CC(C)C)C[C@@H](O)[C@H](Cc2ccccc2)NC(=O)[C@@H]2COCCN2C)cc1 2.12

Report log10(CC50 at 24 h) for CC(C)CN(C[C@@H](O)[C@H](Cc1ccccc1)NC(=O)[C@@H]1COCCN1C)S(=O)(=O)c1ccc(NO)cc1 please. 1.98

Fill blank: measured log10(CC50 at 24 h) of the compound CC(C)CN(C[C@@H](O)[C@H](Cc1ccccc1)NC(=O)[C@@H]1COCCN1C)S(=O)(=O)c1ccc(O)cc1 is ____. 2.13

====

# Assay Comment: Selectivity index, ratio EC50 for Antiviral activity against DRV resistant HIV1 over EC50 for wild type HIV1 NL4-3
Endpoint Name: Ratio EC50
Answer field: number only, no words.

Consider the compound CC(C)CN(C[C@@H](O)[C@H](Cc1ccccc1)NC(=O)[C@@H]1COCCN1C)S(=O)(=O)c1ccc(O)cc1 and give its measured Ratio EC50. 13

Which value of Ratio EC50 has been reported for COc1ccc(S(=O)(=O)N(CC(C)C)C[C@@H](O)[C@H](Cc2ccccc2)NC(=O)[C@@H]2COCCN2)cc1 in the records? 9

What value of Ratio EC50 has been recorded for this entry: COc1ccc(S(=O)(=O)N(CC(C)C)C[C@@H](O)[C@H](Cc2ccccc2)NC(=O)[C@@H]2COCCN2C)cc1 6

Entry CC(C)CN(C[C@@H](O)[C@H](Cc1ccccc1)NC(=O)[C@@H]1COCCN1)S(=O)(=O)c1ccc(O)cc1 : reported Ratio EC50 = ? 14
